Source: the supplement of paper PMC4466140

Some binders, each annotated with its measured SPOT peptide array binding signal intensity.
Molecular target: SpBbc1
Experiment: SPOT peptide array binding signal intensity (averaged, normalized) (arbitrary units (background-subtracted, floor 0; scale differs between SH3 domains)); higher = stronger binding of the SH3 domain to the peptide
Lab note: record just the number, no unit beside it.

INSERT INTO results (binder, data_value) VALUES
  ('RRARRQMGIPTISQV', 12.2),
  ('VSKLRSPNTPRRLRK', 5.75),
  ('STPQTMRQAPKRPDA', 5),
  ('STKKPRPPVKSKPKH', 8);

--- query ---
Return reported SPOT peptide array binding signal intensity; argument: "DGNEEKPLLPTRPNK"
0.5
